- System Under Test: Dihydrofolate reductase (Rattus norvegicus, UniProt Q920D2)
- Sequence (Q920D2 whole entry): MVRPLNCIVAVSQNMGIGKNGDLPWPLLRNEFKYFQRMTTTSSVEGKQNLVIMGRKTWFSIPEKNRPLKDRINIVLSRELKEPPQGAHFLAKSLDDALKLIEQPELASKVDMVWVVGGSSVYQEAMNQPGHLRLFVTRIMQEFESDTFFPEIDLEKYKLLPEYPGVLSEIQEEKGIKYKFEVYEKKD
Values of IC50 for Dihydrofolate reductase (Rattus norvegicus, UniProt Q920D2), collected from a number of published sources:
Measured Endpoint: IC50 (µM)

[
  {
    "Compound": "COc1c(C)cc(Cc2cnc(N)nc2N)cc1C",
    "System Under Test": "Dihydrofolate reductase (Rattus norvegicus, UniProt Q920D2)",
    "IC50 [µM]": 250
  },
  {
    "Compound": "CCc1nc(N)nc(N)c1-c1ccc2nn(-c3ccccc3)[n+]([O-])c2c1",
    "System Under Test": "Dihydrofolate reductase (Rattus norvegicus, UniProt Q920D2)",
    "IC50 [µM]": 2.7
  },
  {
    "Compound": "COc1cc(CCNc2ccc3nc(N)nc(N)c3c2Cl)cc(OC)c1OC",
    "System Under Test": "Dihydrofolate reductase (Rattus norvegicus, UniProt Q920D2)",
    "IC50 [µM]": 5.4
  },
  {
    "Compound": "Cc1cc(Cc2cnc(N)nc2N)cc(Cl)c1N",
    "System Under Test": "Dihydrofolate reductase (Rattus norvegicus, UniProt Q920D2)",
    "IC50 [µM]": 160
  },
  {
    "Compound": "COc1cc(Cc2cnc(N)nc2N)cc(C#CCCCC(=O)O)c1OC",
    "System Under Test": "Dihydrofolate reductase (Rattus norvegicus, UniProt Q920D2)",
    "IC50 [µM]": 5
  }
]

P. CC(C)c1cc(Cc2cnc(N)nc2N)cc(C(C)C)c1O
Q. Cc1c(CSc2ccc(Cl)cc2)cnc2nc(N)nc(N)c12
Pick the one with the larger IC50: P vs Q // respond with label for picked entry
P
(P: 8.9 µM, Q: 0.37 µM)

P. Nc1nc(N)c2nc(CSc3cccc(Cl)c3)cnc2n1
Q. COc1cc(OC)c(CNc2cnc3nc(N)nc(N)c3c2)c(OC)c1
Pick the one with the larger IC50: P vs Q // respond with label for picked entry
P

* * *

- System Under Test: Dihydrofolate reductase (Rattus norvegicus)
- Sequence (Q920D2 whole entry): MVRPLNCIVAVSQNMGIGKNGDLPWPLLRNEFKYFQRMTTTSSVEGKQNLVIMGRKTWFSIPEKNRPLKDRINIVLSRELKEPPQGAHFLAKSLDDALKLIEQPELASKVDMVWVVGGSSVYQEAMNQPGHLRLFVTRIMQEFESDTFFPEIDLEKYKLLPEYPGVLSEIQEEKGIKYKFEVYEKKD
pIC50: −log10 of the molar value.
Values of pIC50 for Dihydrofolate reductase (Rattus norvegicus), collected from a number of published sources:
Measured Endpoint: pIC50

[
  {
    "Molecule": "CCc1nc(N)nc(N)c1-c1ccc(Cl)c(/N=N/N(CCOC(C)=O)Cc2ccc(OC)cc2)c1",
    "Numeric Value": 5.68
  },
  {
    "Molecule": "COc1ccc(CNc2cnc3nc(N)nc(N)c3c2)c(OC)c1OC",
    "Numeric Value": 5.49
  },
  {
    "Molecule": "COc1cc(Cc2cnc(N)nc2N)cc(OCCCCCCC(=O)O)c1OC",
    "Numeric Value": 4.25
  },
  {
    "Molecule": "Nc1nc(N)c2cc(COC(=O)c3ccccc3)ccc2n1",
    "Numeric Value": 6.41
  }
]

a. COc1cccc(CC2CCc3nc(N)nc(N)c3C2)c1 (configuration not stated)
b. COc1cc(-c2sc3nc(N)nc(N)c3c2C)cc(OC)c1OC
Pick the one with the larger pIC50: a vs b // respond with label for picked entry
a
(a: 6.96, b: 5.74)

P. COc1cc(-c2nc3nc(N)nc(N)c3[nH]2)c([N+](=O)[O-])cc1OC
Q. CN(Cc1cnc2nc(N)nc(N)c2c1)c1cc(Cl)c(Cl)c(Cl)c1
Pick the one with the larger pIC50: P vs Q // respond with label for picked entry
Q
(Q: 6.57, P: 4.60)

1. COc1ccc(OC)c(Cc2cnc3nc(N)nc(N)c3c2C)c1
2. CCC(=O)OCCN(Cc1ccccc1)/N=N/c1cc(-c2c(N)nc(N)nc2CC)ccc1Cl
3. COc1ccc(C(=O)OCc2ccc3nc(N)nc(N)c3c2)c(OC)c1OC
4. COc1ccc(N(C)Cc2ccc3nc(N)nc(N)c3n2)cc1OC
Would you mind ranking these molecules by ascending pIC50? // ordering of labels required in reply
2, 3, 1, 4
(2: 5.48, 3: 6.30, 1: 7.82, 4: 8.57)

* * *

pIC50: −log10 of the molar value.
Values of pIC50 for Dihydrofolate reductase (Rattus norvegicus), collected from a number of published sources:
Measured Endpoint: pIC50

[
  {
    "Compound": "COc1cccc(NCc2ccc3nc(N)nc(N)c3n2)c1",
    "pIC50": 6.70
  },
  {
    "Compound": "Cc1c(CN(C)c2ccc(Br)cc2)cnc2nc(N)nc(N)c12",
    "pIC50": 7.44
  },
  {
    "Compound": "Cc1c(CNc2cccc3c2CCCC3)cnc2nc(N)nc(N)c12",
    "pIC50": 6.89
  },
  {
    "Compound": "COc1cc(CCCC2CCc3nc(N)nc(N)c32)cc(OC)c1OC (centres undefined)",
    "pIC50": 6.66
  },
  {
    "Compound": "CC(=O)c1ccc(N(C)Cc2ccc3nc(N)nc(N)c3n2)cc1",
    "pIC50": 8.29
  }
]

P. COc1cc(NCc2ccc3nc(N)nc(N)c3n2)cc(OC)c1OC
Q. Cc1c(CN(C)c2ccc(Cl)cc2)cnc2nc(N)nc(N)c12
R. COc1c(Cl)c(-n2ccc3c4c(N)nc(N)nc4nc(=O)c-3c2)c(Cl)c(OC)c1OC
S. COc1cc(CCc2cnc3nc(N)nc(N)c3c2)cc(OC)c1OC
T. COc1cccc(C)c1NCc1cnc2nc(N)nc(N)c2n1
Hello, I need these entries ordered by pIC50, highest reading first. Thanks! // ordering of labels required in reply
Q, P, R, S, T
(Q: 7.59, P: 6.70, R: 6.30, S: 5.94, T: 5.24)

I. COc1cc(CC2=CC(Cc3cc(OC)c(O)c(OC)c3)C(=O)N=C2N)cc(OC)c1O (centres undefined)
II. CN(Cc1ccc2nc(N)nc(N)c2n1)c1ccc(Cl)c(Cl)c1
Hey, which is lower on measured pIC50, I or II ? // respond with label for picked entry
I
(I: 1.85, II: 7.77)

A. COc1c(C(C)(C)C)cc(Cc2cnc(N)nc2N)cc1C(C)(C)C
B. Nc1nc(N)c2nc(CNc3ccc(Cl)cc3Cl)ccc2n1
Hey, which is lower on measured pIC50, A or B ? // respond with label for picked entry
A

a. COc1ccc(OC)c(CCc2cnc3nc(N)nc(N)c3n2)c1
b. COc1ccc(SCc2cnc3nc(N)nc(N)c3n2)cc1
c. Cc1ccc(SCc2cnc3nc(N)nc(N)c3c2C)cc1
Hello, I need these entries ordered by pIC50, highest reading first. Thanks! // ordering of labels required in reply
c, b, a

1. Nc1nc(N)c2nc(COC(=O)c3ccccc3)cnc2n1
2. Cc1c(CNc2ccccc2)cnc2nc(N)nc(N)c12
3. COC(=O)CCCCOc1cc(Cc2cnc(N)nc2N)cc(OC)c1OC
4. COc1cccc(NCc2cnc3nc(N)nc(N)c3c2C)c1
Hello, I need these entries ordered by pIC50, highest reading first. Thanks! // ordering of labels required in reply
4, 2, 1, 3
(4: 7.10, 2: 6.77, 1: 5.15, 3: 3.89)

a. COc1ccc(C(=O)OCc2ccc3nc(N)nc(N)c3c2)cc1OC
b. Cc1cc(Cc2cnc(N)nc2N)cc(C)c1N
Pick the one with the larger pIC50: a vs b // respond with label for picked entry
a

* * *

Values of IC50 for Dihydrofolate reductase (Rattus norvegicus, UniProt Q920D2), collected from a number of published sources:
- System Under Test: Dihydrofolate reductase (Rattus norvegicus, UniProt Q920D2)
- Sequence (Q920D2 whole entry): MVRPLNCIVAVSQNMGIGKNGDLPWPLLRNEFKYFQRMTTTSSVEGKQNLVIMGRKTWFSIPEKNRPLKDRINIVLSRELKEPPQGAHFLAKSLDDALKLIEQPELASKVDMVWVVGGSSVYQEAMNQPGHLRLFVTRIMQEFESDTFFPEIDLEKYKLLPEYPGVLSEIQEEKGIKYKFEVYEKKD
Measured Endpoint: IC50 (µM)

[
  {
    "Compound": "COc1cc(-n2cccc2)c(OC)cc1NCc1cnc2nc(N)nc(N)c2c1C",
    "Numeric Value": 0.23
  },
  {
    "Compound": "COc1cc(NCc2cnc3nc(N)nc(N)c3c2)cc(OC)c1OC",
    "Numeric Value": 1.9
  }
]

I. COc1ccc(CNc2ccc3nc(N)nc(N)c3c2)c(OC)c1
II. Cc1c(CO)cnc2nc(N)nc(N)c12
III. CN(Cc1coc2nc(N)nc(N)c12)c1ccc2ccccc2c1
IV. COc1ccc(SCc2cnc3nc(N)nc(N)c3n2)cc1OC
V. COc1ccc(C)c(NCc2cnc3nc(N)nc(N)c3c2C)c1
Hello, I need these entries ordered by IC50, highest reading first. Thanks! // ordering of labels required in reply
IV, III, II, I, V

1. COc1cc(NCc2c(Br)sc3nc(N)nc(N)c23)cc(OC)c1OC
2. CN(CCc1ccccc1)c1cnc2nc(N)nc(N)c2c1
Pick the one with the larger IC50: 1 vs 2 // respond with label for picked entry
1
(1: 17 µM, 2: 1.4 µM)

1. Nc1nc(N)c2cc(CNc3ccc(Cl)c(Cl)c3)cnc2n1
2. CN(Cc1ccc2nc(N)nc(N)c2n1)c1c(Cl)cccc1Cl
3. COc1cc(N(C)Cc2c(Br)sc3nc(N)nc(N)c23)cc(OC)c1OC
4. COc1cc(CNc2ccc3nc(N)nc(N)c3c2Cl)cc(OC)c1OC
5. CN(Cc1ccccc1)c1cnc2nc(N)nc(N)c2c1
Would you mind ranking these compounds by ascending IC50? // ordering of labels required in reply
4, 2, 5, 1, 3
(4: 0.006 µM, 2: 0.048 µM, 5: 0.14 µM, 1: 0.48 µM, 3: 28 µM)

P. CC(C)(C)C1CCc2nc(N)nc(N)c2C1 (centres undefined)
Q. COc1cc(CN(C)c2ccc3nc(N)nc(N)c3c2Cl)cc(OC)c1OC
Pick the one with the larger IC50: P vs Q // respond with label for picked entry
P
(P: 0.065 µM, Q: 0.038 µM)
